- Tested System: GPR139 (Homo sapiens, UniProt Q6DWJ6)
- Run Description: Ca2+ mobilization assay, agonist mode, stable GPR139-CHOk1 cell line
- Type: cell-based
- Assay Conditions: Supplementary Table 2; mean ± SEM; read-out: pEC50 Ca2+ (converted)
Readout Kind: EC50 (nM)

| Molecule | Result |
| --- | --- |
| Cc1cc(-c2nc(CC(=O)NC(C)c3ccccc3)no2)ccn1 (stereo not drawn) | 1000 |
| Cc1cc(-c2nc(CC(=O)NC(C)c3ccccc3)no2)ns1 (stereo not drawn) | 1580 |
| CC(=O)c1ccc(-c2nc(CC(=O)NC(C)c3ccccc3)no2)s1 (stereo not drawn) | 2510 |
| COc1cc(-c2nc(CC(=O)NC(C)c3ccccc3)no2)ccn1 (stereo not drawn) | 200 |
| Cc1cnc2ccc(-c3nc(CC(=O)NC(C)c4ccccc4)no3)cn12 (stereo not drawn) | 3160 |
| Cc1cc(-c2nc(CC(=O)NC(C)c3ccccc3)no2)cs1 (stereo not drawn) | 100 |
| CCc1ccc(-c2nc(CC(=O)NC(C)c3ccccc3)no2)s1 (stereo not drawn) | 398 |
| Cc1ccnc(-c2nc(CC(=O)NC(C)c3ccccc3)no2)c1 (stereo not drawn) | 794 |
| COc1csc(-c2nc(CC(=O)NC(C)c3ccccc3)no2)c1 (stereo not drawn) | 316 |

====

- Run Description: Metabolic stability in the presence of mouse liver microsomes
- Assay type: in vitro ADME
- Assay Conditions: pH 7.4, read-out: intrinsic clearance, CLint
Listing of entries alongside the reported microsomal CLint at 1 μM.
Readout Kind: microsomal CLint at 1 μM (µL/min/mg)

| Molecule | Result |
| --- | --- |
| Cc1nocc1-c1nc(CC(=O)NC(C)c2ccccc2)no1 (centres unmarked) | 46 |
| Cc1cscc1-c1nc(CC(=O)N[C@@H](C)c2ccccc2)no1 [1.1(S)] | 1370 |

====

- Tested System: GPR139 (Homo sapiens, UniProt Q6DWJ6)
- Sequence (Q6DWJ6 1-353): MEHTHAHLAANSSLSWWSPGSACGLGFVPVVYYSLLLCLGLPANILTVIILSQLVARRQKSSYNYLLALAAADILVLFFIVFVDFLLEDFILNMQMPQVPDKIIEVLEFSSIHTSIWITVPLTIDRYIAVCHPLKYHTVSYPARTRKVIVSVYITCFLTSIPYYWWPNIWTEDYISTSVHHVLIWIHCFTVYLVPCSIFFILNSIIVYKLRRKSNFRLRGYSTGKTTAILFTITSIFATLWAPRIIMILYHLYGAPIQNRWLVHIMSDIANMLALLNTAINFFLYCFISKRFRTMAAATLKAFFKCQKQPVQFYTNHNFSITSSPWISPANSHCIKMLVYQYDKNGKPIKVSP
- Run Description: Ca2+ mobilization assay, agonist mode, stable GPR139-CHOk1 cell line
- Format: cell-based
- Assay Conditions: GPR139-CHOk1; read-out: EC50, Ca2+ mobilization
pEC50: −log10 of the molar value.
Listing of entries alongside the reported pEC50.

| Compound | Tested System | Relation Qualifier | pEC50 |
| --- | --- | --- | --- |
| CC(NC(=O)Cc1coc(-c2cccs2)n1)c1ccccc1 (stereo not drawn) | GPR139 (Homo sapiens, UniProt Q6DWJ6) | < | 5.00 |
| Cc1cc(-c2nc(CC(=O)NC(C)c3ccccc3)no2)sc1C (stereo not drawn) | GPR139 (Homo sapiens, UniProt Q6DWJ6) | = | 6.80 |
| COC(=O)c1cc(NC(=O)NC(C)c2cccc(F)c2F)ccc1C (stereo not drawn) | GPR139 (Homo sapiens, UniProt Q6DWJ6) | = | 6.49 |
| CC(NC(=O)Cc1noc(-c2cccs2)n1)c1ccccc1 (stereo not drawn) | GPR139 (Homo sapiens, UniProt Q6DWJ6) | = | 6.70 |
| COc1cc(OC)cc(C(=O)NNC(=O)Nc2cccc3ccccc23)c1 [Lundbeck Cmp 1a, reference compound] | GPR139 (Homo sapiens, UniProt Q6DWJ6) | = | 6.70 |
| CC(NC(=O)Cn1cc(-c2cccs2)nn1)c1ccccc1 (stereo not drawn) | GPR139 (Homo sapiens, UniProt Q6DWJ6) | = | 5.89 |

====

- Tested System: GPR139 (Homo sapiens, UniProt Q6DWJ6)
- Run Description: Ca2+ mobilization assay, agonist mode, stable GPR139-CHOk1 cell line
- Type: cell-based
- Assay Conditions: Supplementary Table 2; normalized to Lundbeck Cmp 1a; mean ± SEM; read-out: Emax (%) Ca2+

| Molecule | Emax [%] |
| --- | --- |
| COC(=O)c1cc(NC(=O)NC(C)c2cccc(F)c2F)ccc1C (stereo not drawn) | 83 |
| Cc1cscc1-c1nc(CC(=O)NC(C)c2ccccc2)no1 (stereo not drawn) | 125 |
| CC(NC(=O)Cn1cc(-c2cccs2)nn1)c1ccccc1 (stereo not drawn) | 82 |
| COc1ccc(-c2nc(CC(=O)NC(C)c3ccccc3)no2)nc1 (stereo not drawn) | 101 |
| Cc1cccc(-c2nc(CC(=O)NC(C)c3ccccc3)no2)n1 (stereo not drawn) | 95 |
| COc1cccc(-c2nc(CC(=O)NC(C)c3ccccc3)no2)c1 (stereo not drawn) | 111 |
| COc1csc(-c2nc(CC(=O)NC(C)c3ccccc3)no2)c1 (stereo not drawn) | 123 |
| Cc1nonc1Cc1nc(CC(=O)NC(C)c2ccccc2)no1 (stereo not drawn) | 88 |
| COc1ccccc1-c1nc(CC(=O)NC(C)c2ccccc2)no1 (stereo not drawn) | 116 |

====

Listing of entries alongside the reported EC50.
- Tested System: GPR139 (G12 activation) (Homo sapiens, UniProt Q6DWJ6)
- Construct: expressed in transfected cells; host or cells: HEK293A (transient, Lipofectamine 2000)
- Sequence (Q6DWJ6 1-353): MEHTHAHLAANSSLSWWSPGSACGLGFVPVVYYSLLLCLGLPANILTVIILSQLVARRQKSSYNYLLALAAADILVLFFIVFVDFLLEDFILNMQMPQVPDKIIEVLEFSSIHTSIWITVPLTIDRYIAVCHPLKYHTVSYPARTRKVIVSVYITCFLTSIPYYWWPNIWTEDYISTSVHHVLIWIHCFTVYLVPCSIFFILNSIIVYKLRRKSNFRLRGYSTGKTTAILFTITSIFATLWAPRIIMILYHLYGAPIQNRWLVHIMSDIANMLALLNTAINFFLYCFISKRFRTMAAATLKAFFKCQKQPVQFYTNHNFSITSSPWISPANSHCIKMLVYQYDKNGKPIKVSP
- Run Description: BRET G protein activation (dissociation) assay, G12, HEK293A
- Type: cell-based
- Assay Conditions: Supplementary Table 6; read-out: pEC50 G12 (converted)
- Procedure: Primary screening and pharmacological characterization of compounds were performed using a CHO-K1 cell line that stably expresses human GPR139 (GPR139-CHOk1). The GPR139-CHOk1 cell line was kindly provided by H. Lundbeck A/S, Denmark[24]. […]

| Compound | EC50 |
| --- | --- |
| C[C@@H](NC(=O)CNC(=O)c1cccc(Cl)c1)c1ccccc1 [JNJ(R), reference compound] | 3980 nM |
| CC(NC(=O)CNC(=O)c1cccc(Cl)c1)c1ccccc1 (stereo not shown) [JNJ-63533054, reference compound] | 25.1 nM |
| Cc1cscc1-c1nc(CC(=O)N[C@H](C)c2ccccc2)no1 [1.1(R)] | 794 nM |
| Cc1cscc1-c1nc(CC(=O)N[C@@H](C)c2ccccc2)no1 [1.1(S)] | 12.6 nM |

====

- Tested System: GPR139 (Homo sapiens, UniProt Q6DWJ6)
- Run Description: Ca2+ mobilization assay, agonist mode, stable GPR139-CHOk1 cell line
- Assay type: cell-based
- Assay Conditions: GPR139-CHOk1; read-out: EC50, Ca2+ mobilization
Listing of entries alongside the reported EC50.
Readout Kind: EC50 (nM)

| Molecule | Tested System | Readout Unit | Result |
| --- | --- | --- | --- |
| Cc1nocc1-c1nc(CC(=O)NC(C)c2ccccc2)no1 (stereo not drawn) [Compound 1.5] | GPR139 (Homo sapiens, UniProt Q6DWJ6) | nM | 130 |
| COc1ccccc1-c1nc(CC(=O)NC(C)c2ccccc2)no1 (stereo not drawn) [Compound 1.2] | GPR139 (Homo sapiens, UniProt Q6DWJ6) | nM | 50 |
| Cc1cccc(-c2nc(CC(=O)NC(C)c3ccccc3)no2)c1 (stereo not drawn) [Compound 1.3] | GPR139 (Homo sapiens, UniProt Q6DWJ6) | nM | 100 |

====

- Tested System: GPR139 (Homo sapiens)
- Run Description: Ca2+ mobilization assay, agonist mode, stable GPR139-CHOk1 cell line
- Format: cell-based
- Assay Conditions: Supplementary Table 2; normalized to Lundbeck Cmp 1a; mean ± SEM; read-out: Emax (%) Ca2+
Threshold rule: Emax greater than or equal to 90% is true (1); below that, false (0).

| Molecule | Tested System | Class Assignment |
| --- | --- | --- |
| COc1ccc(-c2nc(CC(=O)NC(C)c3ccccc3)no2)cn1 (stereo not shown) | GPR139 (Homo sapiens) | true (1) |
| Cc1cc(-c2nc(CC(=O)NC(C)c3ccccc3)no2)ccn1 (stereo not shown) | GPR139 (Homo sapiens) | true (1) |
| Cc1ccc(-c2nc(CC(=O)NC(C)c3ccccc3)no2)o1 (stereo not shown) | GPR139 (Homo sapiens) | true (1) |
| Cc1cnc2ccc(-c3nc(CC(=O)NC(C)c4ccccc4)no3)cn12 (stereo not shown) | GPR139 (Homo sapiens) | false (0) |
